The reader will find reported pEC50 values listed item by item below.
biological target: hNPY2R (Homo sapiens, UniProt P49146); construct: expressed in transfected cells; host or cells: HEK-293 cells carrying a CRE-luciferase reporter gene; assay: hNPY2R CreLuc reporter gene assay in 0.5% and 100% plasma; format: cell-based; conditions: CreLuc reporter gene assay, 100% human plasma; read-out: hNPY2R 100% hP
Sequence (P49146 whole entry): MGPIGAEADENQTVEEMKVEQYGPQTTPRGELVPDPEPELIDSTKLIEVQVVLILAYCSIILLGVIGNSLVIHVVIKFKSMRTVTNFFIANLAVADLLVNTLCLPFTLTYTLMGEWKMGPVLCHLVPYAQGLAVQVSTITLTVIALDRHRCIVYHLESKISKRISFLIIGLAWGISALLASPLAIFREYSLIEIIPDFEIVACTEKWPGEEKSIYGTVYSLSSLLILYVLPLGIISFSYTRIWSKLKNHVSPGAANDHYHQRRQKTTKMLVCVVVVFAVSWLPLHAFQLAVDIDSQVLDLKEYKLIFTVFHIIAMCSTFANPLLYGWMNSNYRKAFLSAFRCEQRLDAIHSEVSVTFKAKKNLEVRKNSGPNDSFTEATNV
pEC50: −log10 of the molar value. Starred links: 1 amine or outer side, 2 acyl side, 3 side chain; linkers in the order of their positions; H or OH if unused. Non-standard residues stand in square brackets, D forms with d. Groups on a side chain read outwards from the residue. No end group written: not given here. *: point of attachment. C20 diacid = O=C(O)CCCCCCCCCCCCCCCCCCC(=O)*; C18 diacid = O=C(O)CCCCCCCCCCCCCCCCC(=O)*; γGlu = O=C(O)[C@H](CCC(=O)[*:2])N[*:1]; εLys = N[C@@H](CCCCN[*:1])C(=O)[*:2]; AEEA = NCCOCCOCC(=O)O; Aib = CC(C)(N)C(=O)O

{"SUBSTANCE": "H-Y[Aib]EGTFTSDYSI[Aib]LEKQAQ[Aib]EFVQWLIK([AEEA-AEEA-γGlu-γGlu-γGlu-γGlu-γGlu-C20 diacid])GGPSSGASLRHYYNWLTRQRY-NH2 [Compound 36]", "TESTED ON": "hNPY2R (Homo sapiens, UniProt P49146)", "pEC50": 7.57}
{"SUBSTANCE": "H-Y[Aib]EGTFTSDYSI[Aib]LEKQAQ[Aib]AFVQWLIK([εLys-γGlu-γGlu-γGlu-γGlu-γGlu-C18 diacid])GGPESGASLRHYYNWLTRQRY-NH2 [Compound 60]", "TESTED ON": "hNPY2R (Homo sapiens, UniProt P49146)", "pEC50": 7.64}
{"SUBSTANCE": "Y[Aib]EGTFTSDYSI[Aib]LEKQAQ[Aib]AFVQWLIK([AEEA-AEEA-γGlu-γGlu-γGlu-γGlu-γGlu-C18 diacid])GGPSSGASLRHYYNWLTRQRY-NH2 [Compound 167]", "TESTED ON": "hNPY2R (Homo sapiens, UniProt P49146)", "pEC50": 7.58}
{"SUBSTANCE": "H-Y[Aib]EGTFTSDYSI[Aib]LEKQAQ[Aib]EFVEWLIK([AEEA-AEEA-γGlu-γGlu-γGlu-C18 diacid])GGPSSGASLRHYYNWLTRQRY-NH2 [Compound 171]", "TESTED ON": "hNPY2R (Homo sapiens, UniProt P49146)", "pEC50": 7.52}
{"SUBSTANCE": "H-Y[Aib]EGTFTSDYSI[Aib]LEKQAE[Aib]AFVQWLIK([AEEA-AEEA-γGlu-γGlu-γGlu-γGlu-C18 diacid])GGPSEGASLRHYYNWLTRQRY-NH2 [Compound 156]", "TESTED ON": "hNPY2R (Homo sapiens, UniProt P49146)", "pEC50": 7.58}
